molecular target: T1, FIXa-SM (FIXa+EGR-CMK) (human, UniProt P00740 47-191; P00740 227-461, EGR-CMK (L-Glu-Gly-Arg chloromethyl ketone) covalently bound to the active site); assay: BLI; class meaning: paragraph 914
T1 construct: BLI antigen bought from Haematologic Technologies (HCIXA-EGR); also called FIXa with substrate mimic
assay endpoint: binding result

BIIB-9-568 (antibody, V domains shown, IgG) VH: QLQLQESGPGLVKPSETLSLTCTVSGGSISSSSYYWGWIRQPPGKGLEWIGSIYYSGSTYYNPSLKSRVTISVDTSKNQFSLKLSSVTAADTAVYYCARDLGYAATYFDLWGRGTLVTVSS VL: DIQMTQSPSSLSASVGDRVTITCQASQDISNYLNWYQQKPGKAPKLLIYDASNLETGVPSRFSGSGSGTDFTFTISSLQPEDIATYYCQQYDDYLTFGGGTKVEIK | binds
BIIB-9-1266 (antibody, V domains shown, IgG) VH: QVQLVQSGAEVKKPGASVKVSCKASGYTFTSYYMHWVRQAPGQGLEWMGIINPSGGSTSYAQKFQGRVTMTRDTSTSTVYMELSSLRSEDTAVYYCARDHGWAIYGMDVWGQGTTVTVSS VL: EIVMTQSPATLSLSPGERATLSCRASQSVSSYLAWYQQKPGQAPRLLIYDSSNRATGIPARFSGSGSGTDFTLTISSLEPEDFAVYYCQQRLNFPFTFGGGTKVEIK | binds
BIIB-9-1282 (antibody, V domains shown, IgG) VH: QVQLVQSGAEVKKPGASVKVSCKASGYTFTSYYMVWVRQAPGQGLEWMGIINPSGGSTSYAQKFQGRVTMTRDTSTSTVYMELSSLRSEDTAVYYCARVPTYRYSYLAFDIWGQGTMVTVSS VL: EIVMTQSPATLSVSPGERATLSCRASQSVSSNLAWYQQKPGQAPRLLIYGASTRATGIPARFSGSGSGTEFTLTISSLQSEDFAVYYCQQHNHLPITFGGGTKVEIK | binds
